assay: M. tuberculosis growth inhibition, HTS (AID 449762);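 further: bacterial growth assessed after seven days of incubation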; settings: M. tuberculosis H37Rv growth inhibition, 7H9 media; at 25 µM; hits give high values
Hit rate of the full screen: of about 330,000 compounds, about 1,900 (0.58%) were called active. Not shown: some 4% with an inconclusive outcome. Only a sample is shown. Results with a measured potency or affinity are listed apart.
MEASURED ENDPOINT: inhibition (%)

CC1=NN(c2ccccc2)C(=O)C1C(=O)c1cc([N+](=O)[O-])cc([N+](=O)[O-])c1 (stereo not given): -4.74
CCN(CC)CCOC(=O)c1ccc(N/C=C(/C#N)c2nc(-c3cc4ccccc4oc3=O)cs2)cc1: 9.42
Cc1ccc(-c2csc(/C(C#N)=C/Nc3ccc4c(c3)OCCO4)n2)cc1: 7
CCCNC(=O)c1ccc(Cn2cc(-c3ccc(OC)cc3)nc2C(C)N)cc1 (stereo not given): -9.06
COc1cccc(-c2nn(C)c3sc(C(=O)Nc4ccc5c(c4)OCCO5)cc23)c1: 3.01

----------
assay: M. tuberculosis growth inhibition, HTS (AID 449762);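 further: bacterial growth assessed after seven days of incubation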; conditions: M. tuberculosis H37Rv growth inhibition, 7H9 media; at 25 µM; hits give high values
Hit rate of the full screen: of about 330,000 compounds, about 1,900 (0.58%) were called active. Not shown: some 4% with an inconclusive outcome. These entries were drawn from the full list. Potency and affinity values are given separately.
inhibition reference
MEASURED ENDPOINT: inhibition

O=C(CN(Cc1ccco1)C(=O)Cn1nnc(-c2cccs2)n1)NCc1ccccc1: 4.1% (inactive)
COc1ccc2oc(C(=O)OCC(=O)Nc3cc(S(=O)(=O)N4CCOCC4)ccc3OC)c(C)c2c1: 0.56% (inactive)
COc1ccc(-c2c[n+](CC(=O)c3ccccc3)c3n2CCCCC3)cc1: 1.09% (inactive)
Cc1cccc(Nc2nc(N)c([N+](=O)[O-])c(N3CCCC(C)C3)n2)c1 (stereo not given): 10.2% (inactive)
COc1ccc(O)c(-c2cc(-c3ccc(F)cc3)n[nH]2)c1: 0.76% (inactive)
O=C(CSc1nc2cc(Cl)ccc2o1)N1CCOCC1: 0.49% (inactive)
O=C(Nc1cccnc1Cl)c1cccc(F)c1: 9.84% (inactive)
CC(=O)OCC1=C(C(=O)O)N2C(=O)C(NC(=O)C(C)Cn3cc(Cl)cn3)C2SC1 (stereo not given): -1.4% (inactive)
COCCN(C(=O)COC(=O)CSc1ccc2ccccc2c1)c1c(N)n(Cc2ccccc2)c(=O)[nH]c1=O: 0.46% (inactive)
COC(=O)c1cc(-c2ccc(OC)cc2)n[nH]1: -1.36% (inactive)

----------
test: M. tuberculosis growth inhibition, HTS (AID 449762);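 further: bacterial growth assessed after seven days of incubation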; conditions: M. tuberculosis H37Rv growth inhibition, 7H9 media; at 25 µM; hits give high values
The campaign covered roughly 330,000 compounds. About 1,900 (0.58%) were called active. About 4% were inconclusive and are not listed. These entries were drawn from the full list. Entries with a potency or affinity are not part of this list.
inhibition reference
MEASURED ENDPOINT: inhibition (%)

CCn1cnc2sc(C(=O)N3CCN(c4ccc(OC)cc4)CC3)c(C)c2c1=O: -8.96
CCOC(=O)N1CCN(Cc2nc(N)nc(Nc3ccc(Cl)cc3)n2)CC1: -0.66
CCCNC(=O)CCn1c(=S)oc2ccccc21: 2.75
CCCCOC(=O)CCn1c(=S)oc2ccccc21: 23.9
Cc1cc(C(=O)N2CCCC(N3CCN(c4cccc(C(F)(F)F)c4)CC3)C2)nn1C (stereo unspecified): 5.35
Cc1ccn2c(-c3csc(NCc4ccco4)n3)c(C)nc2c1: 7.31
CCc1ccc(NC(=O)c2cc(CC(C)C)on2)cc1: 4.83
CCn1cc(/C=N\NC(=O)c2c[nH]c3ccccc23)c(C)n1: 4.35
CCc1cc2c(SCC(=O)c3cccs3)ncnc2s1: -6.51
NS(=O)(=O)c1ccc(-c2ccc(/C=C3\SC(=S)N(C4CCS(=O)(=O)C4)C3=O)o2)cc1 (stereo unspecified): 0.18
Cc1ccc(N2Cc3ccccc3C2=N)cc1[N+](=O)[O-]: 2.11

----------
experiment: M. tuberculosis growth inhibition, HTS (AID 449762);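 further: bacterial growth assessed after seven days of incubation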; conditions: M. tuberculosis H37Rv growth inhibition, 7H9 media; at 25 µM; hits give high values
The whole screen tested about 330,000 compounds, of which about 1,900 (0.58%) were called active. Not shown: some 4% with an inconclusive outcome. The list is a sample of the results. Measured potencies and affinities stand elsewhere.
inhibition reference
MEASURED ENDPOINT: inhibition (%)

C[C@H](NC(=O)C1CCN(S(=O)(=O)c2ccccc2)CC1)C(=O)NCc1ccc(Cl)cc1Cl: -1.33
COC(=O)C1=C(c2ccc(F)cc2OCc2ccccc2)C[C@@H]2CC[C@H]1N2C(=O)NCc1ccc(F)cc1: -5.1
Cc1nn(Cc2ccccc2)c(C)c1CNC(=O)[C@H](C)N=C1NS(=O)(=O)c2ccccc21: 6.6
Fc1ccccc1Oc1nc(-c2ccncc2)nc2ccccc12: 4.31
COc1ccc(CN(C)C(=O)c2ccc(NC(=O)CC3SC(N4CCCC4)=NC3=O)cc2)c(OC)c1 (stereo not given): 7.53
COc1ccc(NC(=O)CCNC(=O)C2CCN(S(=O)(=O)c3ccc(OC)cc3)CC2)cc1: 10.1
O=C(Cn1ccsc1=NC(=O)C(F)(F)F)c1ccccc1: -3.48
Cc1ccc(-n2cc(CN(C)CCc3cn[nH]c3)c(-c3cccc(C)c3)n2)cc1: 19.1
Cc1ccc(N/C=C/c2onc(C)c2[N+](=O)[O-])cc1: -2.82
CN(Cc1cn(C)nc1-c1cccc(Cl)c1)Cc1nccn1C: -10.3

----------
assay: M. tuberculosis growth inhibition, HTS (AID 449762);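 further: bacterial growth assessed after seven days of incubation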; settings: M. tuberculosis H37Rv growth inhibition, 7H9 media; at 25 µM; hits give high values
The campaign covered roughly 330,000 compounds. About 1,900 (0.58%) were called active. About 4% were inconclusive and are not listed. Only a sample is shown. Entries with a potency or affinity are not part of this list.
MEASURED ENDPOINT: inhibition (%)

CCCOC(=O)C[N+](C)(C)CCOC1CC2CCC1(C)C2(C)C (configuration not stated): -2.27
C=CCNC(=S)N/N=C(\C)c1cccnc1: -7.58
Cc1ccc(NC(=O)C(C)Sc2nc(-c3ccccc3)cc(=O)[nH]2)cc1 (configuration not stated): 14
CCCCCCCCC(=O)N/N=C(\C)c1cccnc1: 7.1
O=C(O)c1ccc(N=N/C(=N\Nc2ccc(C(=O)O)cc2)c2ccccc2)cc1: 11.8
O=C(/C(=N\Nc1ccc(Br)cc1)Sc1nnnn1-c1ccccc1)c1ccccc1: 2.41
Cc1cccc(NC(=O)COC(=O)Cc2cccs2)c1C: 4.38
O=C(c1ccc(F)cc1)C(CN1CCOCC1)c1ccccc1 (configuration not stated): 3.13
COc1ccc(CC(NC(C)=O)C(=O)NC2CCN(c3c4c(nc5ncnn35)CCC4)CC2)cc1 (configuration not stated): -5.34
CCOC(=O)C[N+](C)(C)CCOC1CC2CCC1(C)C2(C)C (configuration not stated): 0.01
CCC(=O)Nc1cccc2ccccc12: -0.62
CCCC(=O)Nc1ccccc1NC(=O)CCC: 0.31

----------
assay: M. tuberculosis growth inhibition, HTS (AID 449762);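 further: bacterial growth assessed after seven days of incubation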; details: M. tuberculosis H37Rv growth inhibition, 7H9 media; at 25 µM; hits give high values
Among all 330,000 compounds or so, about 1,900 (0.58%) were called active. Inconclusive results (about 4%) are left out. A selection follows. Potency and affinity values are given separately.
MEASURED ENDPOINT: inhibition (%)

CCCCc1nnc(NC(=O)C(=O)OCC)s1: -3.95
Cc1cc(C)nc(NC(=O)CSc2nn(-c3ccccc3)c(=S)s2)n1: -0.15
CCOC(=O)CSc1nn(C)c(=S)s1: 0.33
CCn1cc(C(=O)NCC(C)C)c(=O)c2cc(F)c(N3CCN(C(=O)c4ccco4)CC3)cc21: 0.58
Cn1c(=O)cc(OCC(=O)NCCCN2CCN(c3cccc(Cl)c3)CC2)c2ccccc21: 1.78
O=C(COc1ncnc2cc([N+](=O)[O-])ccc12)NC1CCCCC1: -3.77
CSc1nsc(SCCN2C(=O)c3ccccc3C2=O)n1: 2.52
Cc1c(C(=O)O)oc2ccc(S(=O)(=O)NCCC3=CCCCC3)cc12: -7.6
CN1C(=O)CSc2ccc(NC(=O)N3CCOCC3)cc21: 8.66
CCn1cc(C(=O)NC(C)C)c(=O)c2cc(F)c(N3CCN(C(=O)c4ccco4)CC3)cc21: 19.2
Cc1ccc(S(=O)(=O)n2nc(OC(=O)c3ccccc3F)cc2N)cc1: 1.24

----------
assay: M. tuberculosis growth inhibition, HTS (AID 449762);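 further: bacterial growth assessed after seven days of incubation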; conditions: M. tuberculosis H37Rv growth inhibition, 7H9 media; at 25 µM; hits give high values
About 1,900 (0.58%) of roughly 330,000 compounds were called active. About 4% were inconclusive and are not listed. A selection follows. Results with a measured potency or affinity are listed apart.
MEASURED ENDPOINT: inhibition (%)

C[n+]1c(-c2ccccc2)cc(-c2ccc(Cl)cc2)cc1-c1ccccc1: -0.15
O=C(CS(=O)(=O)c1cn(CC(=O)N2CCCC2)c2ccccc12)Nc1ccccc1F: 2.67
Clc1ccc(CNC23CN4CN(CN(C4)C2)C3)c(Cl)c1: -14.8
CC(=O)OC1N=C(c2ccccc2Cl)c2cc(Br)ccc2N(C)C1=O (stereo unspecified): -6.48
CC(C)(C)NC(=O)NC(=O)CSc1ncccn1: 4.89
CCCCCCCCCCSc1n[nH]c(NC(C)=O)n1: 4.39
CC(=O)Oc1ccc(-c2cccc(C(=O)NCCO)c2)cc1: -0.93
CCCn1c(S(=O)(=O)O)nc2ccccc21: 5.54
OC(CN1CCCCC1)Cn1c2ccccc2c2ccccc21 (stereo unspecified): 8.7
CCOC(=O)c1cc(CC)sc1NC(=O)COC(=O)C1CCC1: -15.8
Cc1ccc(N=C2C(=S)N(c3ccc(C)cc3)C(=N)N2/N=C/c2ccc(Cl)cc2)cc1: -4.74

src = PubChem BioAssay AID449762
